Origin of values: patent US10526320B2

Each entry below lists one item and its recorded EC50 value.
molecular target: PPAR Gamma (Homo sapiens); assay: PathHunter NHR protein interaction / nuclear translocation agonist test, PPAR Gamma; type: cell-based; settings: PPAR Gamma EC50 nM
Sequence (P37231 whole entry): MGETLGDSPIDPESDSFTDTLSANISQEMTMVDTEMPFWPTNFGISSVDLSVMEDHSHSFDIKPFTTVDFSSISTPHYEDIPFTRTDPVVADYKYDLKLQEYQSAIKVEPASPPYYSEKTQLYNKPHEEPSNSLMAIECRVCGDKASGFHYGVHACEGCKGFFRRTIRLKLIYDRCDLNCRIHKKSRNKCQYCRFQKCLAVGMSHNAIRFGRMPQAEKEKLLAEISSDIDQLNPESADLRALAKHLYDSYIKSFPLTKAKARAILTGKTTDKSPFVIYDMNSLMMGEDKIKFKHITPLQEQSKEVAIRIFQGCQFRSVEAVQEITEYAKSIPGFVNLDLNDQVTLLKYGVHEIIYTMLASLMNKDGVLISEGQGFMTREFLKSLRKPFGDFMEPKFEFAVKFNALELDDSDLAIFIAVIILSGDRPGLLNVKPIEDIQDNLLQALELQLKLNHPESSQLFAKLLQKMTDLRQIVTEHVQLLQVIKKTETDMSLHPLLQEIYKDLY
RESULT_TYPE: EC50

[
  {
    "COMPOUND": "CSc1ccc(C(=O)C2CN(C(=O)Oc3ccccc3)CC2Cc2cc(C)c(OC(C)(C)C(=O)O)c(C)c2)cc1 (stereo not drawn)",
    "OBSERVED_MEASUREMENT": "> 250 nM"
  },
  {
    "COMPOUND": "CSc1ccc(C(=O)[C@H]2CN(C)C[C@@H]2CCc2cc(C)c(OC(C)(C)C(=O)O)c(C)c2)cc1 (racemic)",
    "OBSERVED_MEASUREMENT": "> 250 nM"
  },
  {
    "COMPOUND": "CSc1ccc(C(=O)[C@H]2CN(C(=O)Oc3ccc(C)nc3)C[C@@H]2Cc2cc(C)c(OC(C)(C)C(=O)O)c(C)c2)cc1 (racemic)",
    "OBSERVED_MEASUREMENT": "> 250 nM"
  }
]

---

molecular target: PPAR Delta (Homo sapiens); test: PathHunter NHR protein interaction / nuclear translocation agonist test, PPAR Delta; assay type: cell-based; details: relative to known PPARδ agonist L-165,041 = 100%; read-out: PPAR Delta Maximum Activation Response %
We begin with a simple list: items and their reported Emax.

[
  {
    "COMPOUND": "CSc1ccc(C(=O)C2CN(C3COC3)C[C@@H]2CCc2cc(C)c(OC(C)(C)C(=O)O)c(C)c2)cc1 (mixture of isomers) [Compound 73]",
    "Emax": "80 to 100%"
  },
  {
    "COMPOUND": "CSc1ccc(C(=O)[C@H]2CN(C(=O)OCCC(C)C)C[C@@H]2CCc2cc(C)c(OC(C)(C)C(=O)O)c(C)c2)cc1 (racemic) [Compound 72]",
    "Emax": "80 to 100%"
  },
  {
    "COMPOUND": "CSc1ccc(C(=O)[C@@H]2CN(C(=O)Oc3ccc(Cl)cc3Cl)C[C@H]2c2cc(C)c(OC(C)(C)C(=O)O)c(C)c2)cc1 (single isomer, unassigned) [Compound 41]",
    "Emax": "80 to 100%"
  },
  {
    "COMPOUND": "CSc1ccc(C(=O)[C@@H]2CN(C(=O)Oc3ccc(C(C)C)cc3)C[C@H]2c2cc(C)c(OC(C)(C)C(=O)O)c(C)c2)cc1 (single isomer, unassigned) [Compound 40]",
    "Emax": "80 to 100%"
  },
  {
    "COMPOUND": "CSc1ccc(C(=O)C2CN(C(=O)Oc3ccccc3)CC2Cc2ccc(OC(C)(C)C(=O)O)cc2)cc1 (single isomer, unassigned) [Compound 76]",
    "Emax": "80 to 100%"
  },
  {
    "COMPOUND": "CSc1ccc(C(=O)[C@H]2CN(C(=O)OC3CCC(C)CC3)C[C@@H]2Cc2cc(C)c(OC(C)(C)C(=O)O)c(C)c2)cc1 (mixture of isomers) [Compound 54]",
    "Emax": "80 to 100%"
  },
  {
    "COMPOUND": "CSc1ccc(C(=O)[C@@H]2CN(S(C)(=O)=O)C[C@H]2CCc2cc(C)c(OC(C)(C)C(=O)O)c(C)c2)cc1 (single isomer, unassigned) [Compound 75]",
    "Emax": "80 to 100%"
  },
  {
    "COMPOUND": "COCCN1CC(CCc2cc(C)c(OC(C)(C)C(=O)O)c(C)c2)C(C(=O)c2ccc(SC)cc2)C1 (stereo not shown) [Compound 59]",
    "Emax": "50 to 80%"
  },
  {
    "COMPOUND": "CSc1ccc(C(=O)C2CN(C(=O)OC3CCCC3)CC2CCc2cc(C)c(OC(C)(C)C(=O)O)c(C)c2)cc1 (single isomer, unassigned) [Compound 74]",
    "Emax": "80 to 100%"
  },
  {
    "COMPOUND": "CSc1ccc(C(=O)C2CN(C(=O)Oc3ccccc3)CC2CCc2ccc(OC(C)(C)C(=O)O)c(F)c2)cc1 (single isomer, unassigned) [Compound 82]",
    "Emax": "80 to 100%"
  },
  {
    "COMPOUND": "CSc1ccc(C(=O)[C@@H]2CN(C(=O)Oc3ccc(Cl)cc3F)C[C@H]2c2cc(C)c(OC(C)(C)C(=O)O)c(C)c2)cc1 (single isomer, unassigned) [Compound 42]",
    "Emax": "80 to 100%"
  },
  {
    "COMPOUND": "CSc1ccc(C(=O)C2CN(C(=O)Oc3ccccc3)CC2Cc2ccc(OC(C)(C)C(=O)O)cc2F)cc1 (single isomer, unassigned) [Compound 83]",
    "Emax": "80 to 100%"
  },
  {
    "COMPOUND": "CSc1ccc(C(=O)C2CN(C(=O)Oc3ccccc3)CC2Cc2ccc(OC(C)(C)C(=O)O)c(F)c2)cc1 (single isomer, unassigned) [Compound 78]",
    "Emax": "80 to 100%"
  },
  {
    "COMPOUND": "Cc1cc(CC2CN(C(=O)Oc3ccccc3)CC2C(=O)c2ccc(F)cc2)cc(C)c1OC(C)(C)C(=O)O (single isomer, unassigned) [Compound 69]",
    "Emax": "80 to 100%"
  },
  {
    "COMPOUND": "CSc1ccc(C(=O)C2CN(C(=O)Oc3ccccc3)CC2Cc2ccc(OC(C)(C)C(=O)O)c(C)c2)cc1 (single isomer, unassigned) [Compound 77]",
    "Emax": "80 to 100%"
  },
  {
    "COMPOUND": "CSc1ccc(C(=O)[C@H]2CN(C(=O)Cc3ccc(Cl)cc3)C[C@@H]2c2cc(C)c(OC(C)(C)C(=O)O)c(C)c2)cc1 (racemic) [Compound 36]",
    "Emax": "50 to 80%"
  },
  {
    "COMPOUND": "Cc1cc(CCC2CN(C(=O)Oc3ccccc3)CC2C(=O)c2ccccc2)cc(C)c1OC(C)(C)C(=O)O (single isomer, unassigned) [Compound 62]",
    "Emax": "80 to 100%"
  },
  {
    "COMPOUND": "Cc1cc(CC2CN(C(=O)Oc3ccccc3)CC2C(=O)c2ccc(Cl)cc2)cc(C)c1OC(C)(C)C(=O)O (single isomer, unassigned) [Compound 70]",
    "Emax": "80 to 100%"
  },
  {
    "COMPOUND": "CSc1ccc(C(=O)[C@@H]2CN(C(=O)Oc3ccc(Cl)c(Cl)c3)C[C@H]2c2cc(C)c(OC(C)(C)C(=O)O)c(C)c2)cc1 (single isomer, unassigned) [Compound 43]",
    "Emax": "80 to 100%"
  },
  {
    "COMPOUND": "CSc1ccc(C(=O)C2CN(S(C)(=O)=O)CC2c2cc(C)c(OC(C)(C)C(=O)O)c(C)c2)cc1 (single isomer, unassigned) [Compound 18]",
    "Emax": "50 to 80%"
  },
  {
    "COMPOUND": "Cc1cc(CCC2CN(C(=O)Oc3ccccc3)CC2C(=O)c2ccc(Cl)s2)cc(C)c1OC(C)(C)C(=O)O (single isomer, unassigned) [Compound 47]",
    "Emax": "80 to 100%"
  },
  {
    "COMPOUND": "CSc1ccc(C(=O)C2CN(C(=O)Oc3ccccc3)CC2CCc2ccc(OC(C)(C)C(=O)O)cc2)cc1 (single isomer, unassigned) [Compound 80]",
    "Emax": "80 to 100%"
  },
  {
    "COMPOUND": "CSc1ccc(C(=O)C2CN(S(N)(=O)=O)CC2c2cc(C)c(OC(C)(C)C(=O)O)c(C)c2)cc1 (single isomer, unassigned) [Compound 19]",
    "Emax": "50 to 80%"
  },
  {
    "COMPOUND": "Cc1cc(CCC2CN(C(=O)Oc3ccccc3)CC2C(=O)c2ccc(F)cc2)cc(C)c1OC(C)(C)C(=O)O (single isomer, unassigned) [Compound 63]",
    "Emax": "80 to 100%"
  },
  {
    "COMPOUND": "CSc1ccc(C(=O)C2CN(C(=O)Oc3ccccc3)CC2CCc2ccc(OC(C)(C)C(=O)O)c(C)c2)cc1 (single isomer, unassigned) [Compound 81]",
    "Emax": "80 to 100%"
  }
]

---

Let's look at some molecules and their measured pEC50.
Biological target: PPAR Delta (Homo sapiens, UniProt Q03181)
Sequence (Q03181 1-441): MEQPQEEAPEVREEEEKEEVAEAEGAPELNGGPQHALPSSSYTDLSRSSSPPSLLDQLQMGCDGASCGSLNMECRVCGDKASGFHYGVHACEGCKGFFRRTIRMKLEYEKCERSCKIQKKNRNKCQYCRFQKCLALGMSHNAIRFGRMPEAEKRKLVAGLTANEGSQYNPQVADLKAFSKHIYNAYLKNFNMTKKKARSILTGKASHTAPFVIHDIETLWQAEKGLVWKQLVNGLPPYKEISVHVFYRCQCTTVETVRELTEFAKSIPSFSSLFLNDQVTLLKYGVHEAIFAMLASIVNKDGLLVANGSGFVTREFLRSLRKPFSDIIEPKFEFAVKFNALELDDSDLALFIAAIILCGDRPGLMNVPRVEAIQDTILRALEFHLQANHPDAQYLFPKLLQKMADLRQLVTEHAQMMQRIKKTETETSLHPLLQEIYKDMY
Assay: PathHunter NHR protein interaction / nuclear translocation agonist test, PPAR Delta
Type: cell-based
Conditions: agonist mode; read-out: PPAR Delta EC50
pEC50: −log10 of the molar value.

[
  {
    "MOLECULE": "CSc1ccc(C(=O)C2CN(C(=O)Oc3cccc(Cl)c3)CC2c2cc(C)c(OC(C)(C)C(=O)O)c(C)c2)cc1 (single isomer, unassigned)",
    "pEC50": "6.70 to 6.82"
  },
  {
    "MOLECULE": "CSc1ccc(C(=O)[C@@H]2CN(C(=O)Oc3ccc(Cl)cc3Cl)C[C@H]2c2cc(C)c(OC(C)(C)C(=O)O)c(C)c2)cc1 (single isomer, unassigned)",
    "pEC50": "> 7.00"
  },
  {
    "MOLECULE": "CSc1ccc(C(=O)C2CN(C(=O)Oc3ccccc3)CC2c2cccc(OC(C)(C)C(=O)O)c2)cc1 (stereo not drawn)",
    "pEC50": "< 6.60"
  }
]
